Please provide measured CC50 for the entries that follow.
# MEASUREMENT DESCRIPTION: in vitro
# Assay type: cell-based, murine
# APPLIED CONDITIONS: mouse, L929, MTT assay (Table S1)

Documented CC50 of COC(=O)c1cc2ccc(OC3CCCCC3)cc2c2cc(OC)c(OC)cc12 : > 100 µg/mL

Documented CC50 of CCOc1ccc2cc(C(=O)OC)c3cc(OC)c(OC)cc3c2c1 : > 100 µg/mL

Documented CC50 of COC(=O)[C@@H]1CCC(=O)N1Cc1cc2ccc(OC)cc2c2cc(OC)c(OC)cc12 : > 100 µg/mL

Recorded values, source paper PMC9154192.
